Reference source for all entries: ChEMBL document CHEMBL5149980

- study.system: UniProt:P43235
- Sequence (P43235 whole entry): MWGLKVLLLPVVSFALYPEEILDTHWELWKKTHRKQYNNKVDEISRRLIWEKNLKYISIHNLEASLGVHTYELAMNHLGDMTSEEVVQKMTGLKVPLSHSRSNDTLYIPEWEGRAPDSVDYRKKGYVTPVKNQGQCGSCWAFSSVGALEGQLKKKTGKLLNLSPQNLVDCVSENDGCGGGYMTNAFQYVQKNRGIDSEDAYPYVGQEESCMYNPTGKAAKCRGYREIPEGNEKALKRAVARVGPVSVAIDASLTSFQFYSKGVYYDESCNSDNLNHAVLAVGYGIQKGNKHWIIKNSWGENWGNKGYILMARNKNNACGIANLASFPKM
parameter.measured: pKi
One number for each entry, as −log10 of the molar value.

Exam item: I would be grateful if you could share the reported pKi for CCN(CC)c1ccc(/C=C/c2ccccc2C(=O)NC(Cc2ccccc2)C(=O)C(N)=O)cc1 (stereo unspecified) .
Marked response: 8.74
